Below: a set of entries, each annotated with reported self-cleavage.
B1: OR4K15 (parent)
chain: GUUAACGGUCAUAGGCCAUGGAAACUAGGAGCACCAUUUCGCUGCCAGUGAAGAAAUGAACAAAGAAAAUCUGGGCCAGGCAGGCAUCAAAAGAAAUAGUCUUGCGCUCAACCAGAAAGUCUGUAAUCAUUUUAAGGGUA

# Variants of: B1
# test_method_notes: self-cleavage, relative activity (ratio to wild type); higher = more cleavage; in vitro, sequencing; the parent is a self-cleaving ribozyme

- mutation_key: "A13G A54G"
  self-cleavage: 0.81
- mutation_key: "G7A G74U"
  self-cleavage: 0.2
- mutation_key: "C107A"
  self-cleavage: 0.03
- mutation_key: "G48A A64U"
  self-cleavage: 1.63
- mutation_key: "U19C A90U"
  self-cleavage: 1.49
- mutation_key: "A94G A95G"
  self-cleavage: 1.9
- mutation_key: "A89U A118C"
  self-cleavage: 0.7
- mutation_key: "A4G U39C"
  self-cleavage: 1.46
- mutation_key: "A22G A56G"
  self-cleavage: 1.01
- mutation_key: "U19A A62G"
  self-cleavage: 1.32
- mutation_key: "A47G A64G"
  self-cleavage: 1.17
- mutation_key: "C34U G44A"
  self-cleavage: 1.66
- mutation_key: "A114G U127A"
  self-cleavage: 0.47
- mutation_key: "G115A C128U"
  self-cleavage: 0.06
- mutation_key: "A59U A118G"
  self-cleavage: 0.75
- mutation_key: "A51G U127C"
  self-cleavage: 1.04
- mutation_key: "C40A A67G"
  self-cleavage: 1.7
- mutation_key: "A68G G106A"
  self-cleavage: 0.02
- mutation_key: "A13G U122A"
  self-cleavage: 0.97
- mutation_key: "A91G G106A"
  self-cleavage: 0.01
- mutation_key: "U26C G136A"
  self-cleavage: 2.02
- mutation_key: "A111G C112G"
  self-cleavage: 0
